The following molecules are listed with their measured zone of inhibition at 100 µg/mL values.
Test system: Salmonella typhi
Test Description: Antibacterial activity against Salmonella typhi MTCC 733 assessed as growth inhibition at 100 ug/mL after 14 hrs by cup plate method
Format: functional, Salmonella enterica subsp. enterica serovar Typhi
Measurement Context: Salmonella enterica, MTCC 733, 14 h; read-out: DIZ
Measure Name: zone of inhibition at 100 µg/mL (mm)

Smiles Input: Cc1cc(=O)oc2cc(OCCCCCCn3cc(CN4C(=O)c5ccccc5C4=O)nn3)ccc12
Unit Info: mm
Test Value: 12.4
--
Smiles Input: Cc1cc(=O)oc2cc(OCCCCCCn3cc(CN4CCCCC4)nn3)ccc12
Unit Info: mm
Test Value: 14.4
--
Smiles Input: Cc1cc(=O)oc2cc(OCCCCCCn3cc(CN4CCN(Cc5ccc6c(c5)OCO6)CC4)nn3)ccc12
Unit Info: mm
Test Value: 14.1
--
Smiles Input: Cc1cc(=O)oc2cc(OCc3cn(CCCCN4C(=O)c5ccccc5C4=O)nn3)ccc12
Unit Info: mm
Test Value: 12.5
--
Smiles Input: Cc1cc(=O)oc2cc(OCCCCCCN=[N+]=[N-])ccc12
Unit Info: mm
Test Value: 12.4
--
Smiles Input: Cc1cc(=O)oc2cc(OCc3cn(CCCCCN4C(=O)c5ccccc5C4=O)nn3)ccc12
Unit Info: mm
Test Value: 12.7
--
Smiles Input: Cc1cc(=O)oc2cc(OCCCCN=[N+]=[N-])ccc12
Unit Info: mm
Test Value: 12.9
--
Smiles Input: Cc1cc(=O)oc2cc(OCc3cn(CCN4C(=O)c5ccccc5C4=O)nn3)ccc12
Unit Info: mm
Test Value: 11.9
--
Smiles Input: Cc1cc(=O)oc2cc(OCc3cn(CCCN4C(=O)c5ccccc5C4=O)nn3)ccc12
Unit Info: mm
Test Value: 12.3
